Target: T1, 鼠CLDN18.2 (mCLDN18.2), claudin-18 isoform A2.1 [Mus musculus], NP_001181850.1 (mouse, UniProt P56857 10-264)
T1 construct: also called 鼠CLDN18.2+细胞; mCLDN18.2+ cell
T1 chain: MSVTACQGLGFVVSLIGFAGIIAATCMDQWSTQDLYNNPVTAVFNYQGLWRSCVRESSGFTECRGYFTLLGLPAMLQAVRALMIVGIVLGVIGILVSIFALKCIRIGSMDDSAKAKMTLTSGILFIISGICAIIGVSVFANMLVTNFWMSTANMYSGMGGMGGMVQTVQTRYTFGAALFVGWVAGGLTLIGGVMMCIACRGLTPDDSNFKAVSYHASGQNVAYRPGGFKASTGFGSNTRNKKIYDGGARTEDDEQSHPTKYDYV
Assay: cell ELISA on mCLDN18.2+ cells (Table 23)
pEC50: −log10 of the molar value.
# pEC50 per record follows
measure: pEC50

[[record]]
binder = "Ab36抗体 (antibody, human IgG1, kappa, V domains shown, Ab6 with NS->NT in light CDR1 and heavy CDR3; hIgG1 / kappa) VH: QVQLVQSGAEVKKPGSSVKVSCKASGYAFSNYLIEWVKQAPGQGLEWIGLINPGSGGTNYNEKFKGKATITADKSTSTAYMELSSLRSEDTAVYYCARVYYGNTFAYWGQGTLVTVSS VL: DIVMTQSPDSLAVSLGERATISCKSSQSLLNTGNNKNYLAWYQQKPGQPPKLLIYWASTRESGVPDRFSGSGSGTDFTLTISSLQAEDVAVYYCQNDYFYPFTFGQGTKLEIKR"
measure = "pEC50"
observedmeasurement = 9.29

[[record]]
binder = "anti-hCLDN18.2抗体mab5b (重组表达) (antibody, human IgG1, kappa, V domains shown, also called 鼠源抗体mab5b) VH: QVQLQQSGAELIGPGTSVKVSCKASGYAFSNYLIEWVKQRPEQGLEWIGLINPGSGGTNYNEKFKGKATLTADKSSSTAYMQLSSLTSDDSAVYFCARVYYGNSFAYWGQGTLVTVSA VL: DIVMTQSPSSLTVTAGEKVTMSCKSSQSLLNSGNQKNYLTWYQQKPGQPPKLLIYWASTRESGVPDRFTGSGSGTHFTLTISSVQAEDLAVYYCQNDYFYPFTFGSGTKLEKKR"
measure = "pEC50"
observedmeasurement = 9.43

[[record]]
binder = "人源化Ab10抗体 (antibody, human IgG1, kappa, V domains shown, Humanized, hIgG1 (356-358 DEL) / kappa; also called L14/H51) VH: QVQLVQSGAEVKKPGSSVKVSCKASGYAFSNYLIEWVKQAPGQGLEWIGLINPGSGGTNYNEKFKGKATITADKSTSTAYMELSSLRSEDTAVYYCARVYYGNSFAYWGQGTLVTVSS VL: DIVMTQSPDSLAVSLGERATISCKSSQSLLNSGNQKNYLTWYQQKPGQPPKLLIYWASTRESGVPDRFSGSGSGTDFTLTISSLQAEDVAVYYCQNDYFYPFTFGQGTKLEIKR"
measure = "pEC50"
observedmeasurement = 9.43

[[record]]
binder = "Ab51抗体 (antibody, human IgG1, kappa, V domains shown, hIgG1 (DEL) / kappa; also called L21/H64 DEL) VH: QVQLVQSGAEVKKPGSSVKVSCKASGYAFSNYLIEWVRQAPGQGLEWMGLINPGSGGTNYNEKFKGRVTITADESTSTAYMELSSLRSEDTAVYYCARVYYGNTFAYWGQGTLVTVSS VL: DIVMTQSPDSLAVSLGERATINCKSSQSLLNTGNNKNYLAWYQQKPGQPPKLLIYWASTRESGVPDRFSGSGSGTDFTLTISSLQAEDVAVYYCQNDYFYPFTFGQGTKLEIKR"
measure = "pEC50"
observedmeasurement = 9.32

